Test: Postprandial plasma kinetics of monoterpenes after a single dose of Mastiha Oil (GC-MS-MS)
Assay type: in vivo, human
Conditions: male, oral; human plasma, 24 h after 1 mL MO; mean ± SEM
reported property: concentration at 24 h (ng/mL)

A. C=C1CCC2CC1C2(C)C (stereo not drawn) [β-Pinene, β-pinene]
B. CC1=CCC2CC1C2(C)C (stereo not drawn) [α-Pinene, α-pinene]
C. C=CC(=C)CCC=C(C)C [Myrcene, myrcene]
Exercise: Order the records so the highest concentration at 24 h appears first and the lowest last. Please list the labels according to the requested order.
Solution: C, B, A

* * *

Assay: Postprandial plasma kinetics of monoterpenes after a single dose of Mastiha Oil (GC-MS-MS)
Format: in vivo, human
Conditions: male; human plasma, healthy males, 1 mL MO oral single dose after overnight fasting; mean ± SEM
reported property: Cmax (ng/mL)

molecule	reported property	quantitative result
C=CC(=C)CCC=C(C)C [Myrcene, myrcene]	Cmax	967

a. CC1=CCC2CC1C2(C)C (stereo not drawn) [α-Pinene, α-pinene]
b. C=C1CCC2CC1C2(C)C (stereo not drawn) [β-Pinene, β-pinene]
Exercise: Of a and b , whose reported Cmax is the larger number? Reply with the label of the item you choose.
Solution: a
